B1: KLHDC10 (parent)
chain: CPIIRIPNRFLRGHRPPPARSGHR

# Variants of: B1
# Assay Method Text: protein stability index of a GFP-peptide fusion (GPS, HEK-293T) (PSI 1-6); higher = more stable;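 further: lentivirally expressed fusions sorted by FACS into six bins by GFP to DsRed ratio, PSI derived from sequencing read proportions per bin multiplied by bin number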
# Test Settings: c terminus: a fixed tail appended
Classes by protein stability index: bin 1 = under 2, bin 2 = from 2 up to 3, bin 3 = 3 and over

I6E; bin 3

Query: Bin this entry: R12W
Response: bin 2

Query: Bin this entry: P7S
Response: bin 3

Query: Bin this entry: H14W
Response: bin 2
